system: Ruminococcus gnavus DSM 108212; experiment: fold change of Tryptamine concentration vs plate DMSO controls (fold change (ratio)); higher = more amine produced, active = hit call of the paper (significant change in both replicates, either direction); conditions: incubation time: 27 h, anaerobic, 37 °C;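 for the amine columns active = adjusted P below 0.05 in both replicates with a change the same way and a mean fold change under 0.8 or over 1.25; inactive = the rest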
Structures can show the parent of a compound that is named as a salt.
Outcome field: choose from 1 = active, -1 = inactive

Recorded results for 8 molecules are shown here.
# Molecule, Cat
rows = [
    ("O=C1C(CC[S+]([O-])c2ccccc2)C(=O)N(c2ccccc2)N1c1ccccc1 (stereo not given) [Sulfinpyrazone] (20 µM)", -1),
    ("O=c1[nH]c(=O)n(C2CCCO2)cc1F (stereo not given) [Tegafur] (20 µM)", -1),
    ("O=C(CO)[C@@H](O)[C@H](O)[C@H](O)CO [D(-) Fructose] (50 µM)", -1),
    ("Cc1ccsc1/C=C/C1=NCCCN1C [Morantel tartrate] (20 µM)", -1),
    ("O=P(O)(O)C(O)(Cn1ccnc1)P(=O)(O)O [Zoledronic acid hydrate] (20 µM)", -1),
    ("Nc1ncn(C2OC(CO)C(O)C2O)c(=O)n1 (stereo not given) [Azacytidine-5] (20 µM)", -1),
    ("O=C1CN(/N=C/c2ccc(-c3ccc([N+](=O)[O-])cc3)o2)C(=O)N1 [Dantrolene sodium salt] (20 µM)", -1),
    ("CC(C)(Oc1ccc(Cl)cc1)C(=O)O [Clofibric acid] (20 µM)", -1),
]

Fill in: this test's call for O=C(O)Cc1cc(I)c(Oc2ccc(O)c(I)c2)c(I)c1 [Tiratricol] (20 µM) is ___
-1

Called result for CC(=O)O[C@H]1C(=O)[C@@]2(C)[C@H]([C@H](OC(=O)c3ccccc3)[C@]3(O)C[C@H](OC(=O)[C@H](O)[C@@H](NC(=O)c4ccccc4)c4ccccc4)C(C)=C1C3(C)C)[C@]1(OC(C)=O)CO[C@@H]1C[C@@H]2O [Paclitaxel] (20 µM)
-1
